# Test Name: chemical genetic growth profiling, strain panel (AID 1159580);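 also: tested at 20 µM; growth read once vehicle control cultures reached saturation at 30 °C; 1 = growth at the plate median or of vehicle wells; lower values mean less growth of the strain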
# Measurement Setup: S. cerevisiae deletion strains, growth OD, locus YNL209W, strain ssb2, hits give low values
Screen size: about 5,500 compounds; about 2,000 (36%) were called active. About 18% were inconclusive and are not listed. The list shows a part of the results.
Each entry below lists one item and its recorded normalized growth value.
Reply with just the number.

>  <Compound>
Oc1c(Cl)cc(Cl)cc1Sc1cc(Cl)cc(Cl)c1O

>  <normalized growth>
0.0572

$$$$
>  <Compound>
C=C1c2c(Cl)ccc(O)c2C(O)=C2C(=O)[C@]3(O)C(O)=C(C(N)=O)C(=O)[C@@H](N(C)C)[C@@H]3[C@@H](O)[C@H]12

>  <normalized growth>
0.924

$$$$

Record C[C@H]1c2cccc(O)c2C(O)=C2C(=O)[C@]3(O)C(O)=C(C(N)=O)C(=O)[C@@H](N(C)C)[C@@H]3[C@@H](O)[C@@H]21 , field normalized growth: 0.985

Just so you know, measured normalized growth for O=P1(N(CCCl)CCCl)NCCCO1 (configuration not stated) came out at 1.01

# normalized growth (compound: Cc1nc(N)cc(C[n+]2csc(CCO)c2C)n1 ) is 0.981

So, COc1ccccc1OCC(O)CO (configuration not stated) ? Its normalized growth was 1.02

Query CC(=O)O[C@@H]1C=C[C@@]2(C)C(C[C@@H](OC(C)=O)[C@@]3(C)C4=CC(=O)O[C@@H](c5ccoc5)[C@]4(C)CCC23)C1(C)C (some centres not stated) yields normalized growth of 0.985

The reported value for C=C1c2cccc(O)c2C(O)=C2C(=O)[C@]3(O)C(O)=C(C(N)=O)C(=O)[C@@H](N(C)C)[C@@H]3[C@@H](O)[C@H]12 in terms of normalized growth is 1.01

Lab note: CC(N=C(NC#N)Nc1ccncc1)C(C)(C)C (configuration not stated) gave normalized growth of 0.993

// normalized growth lookup, compound = CC(C)CCCC(C)[C@H]1CCC2C3C(=O)C=C4C[C@@H](O)CC[C@]4(C)C3CC[C@@]21C (some centres not stated) , result: 1

###

# Test Name: chemical genetic growth profiling, strain panel (AID 1159580)
# Measurement Setup: S. cerevisiae deletion strains, growth OD, locus YLR102C, strain apc9
Out of some 5,500 compounds screened, about 2,000 (36%) were called active. Not shown: some 18% with an inconclusive outcome. Cut-off read from the data, not from the text of the source: active = normalized growth mostly below about 0.91 (no sharp cut-off); inconclusive = no clear call, values can overlap the other calls; inactive = mostly above about 0.92. The list shows a part of the results.
Could you please pick one outcome from this set? label 1 (active), label 0 (inactive)

>  <Compound>
CC(CCC(=O)O)[C@H]1CCC2C3CC[C@@H]4CC(=O)CC[C@]4(C)C3C=C[C@@]21C (stereo partly specified)

>  <Label>
label 0

$$$$
>  <Compound>
OC[C@H]1O[C@@](CO)(O[C@@H]2O[C@H](CO)[C@@H](O)[C@H](O)[C@H]2O)[C@@H](O[C@@H]2O[C@H](CO)[C@@H](O)[C@H](O)[C@H]2O)[C@@H]1O

>  <Label>
label 0

$$$$

Query :: Could you please tell me the result logged for CC(C)CCCC(C)[C@H]1CCC2C3CC=C4C[C@@H](O)CC[C@]4(C)C3CC[C@@]21C (stereo partly specified) in this assay?
Result :: label 0

Query :: # outcome recorded in this test, key = CCN(CC)CCOC(=O)C(c1ccccc1)C1CCCCC1 (stereo unspecified)
Result :: label 0

###

# Test Name: chemical genetic growth profiling, strain panel (AID 1159580)
# Measurement Setup: S. cerevisiae deletion strains, growth OD, locus YLR370C, strain arc18, hits give low values
Hit rate of the full screen: of about 5,500 compounds, about 2,000 (36%) were called active. Another 18% or so got no clear call; they are omitted. Some of the results follow.
Each entry below carries its reported normalized growth.
Write the number on its own, no unit after it.

Solved cases (3 shown):
>  <Molecule>
N=C(N)N

>  <normalized growth>
1.01

$$$$
>  <Molecule>
O=C(O)c1cc(O)c2c(c1)[C@@H]([C@H]1c3cc(C(=O)O)cc(O)c3C(=O)c3c(O[C@H]4O[C@H](CO)[C@@H](O)[C@H](O)[C@H]4O)cccc31)c1cccc(O[C@H]3O[C@H](CO)[C@@H](O)[C@H](O)[C@H]3O)c1C2=O

>  <normalized growth>
1

$$$$
>  <Molecule>
CC(C)CCCC(C)[C@H]1CCC2C3C(=O)C=C4C[C@@H](O)CC[C@]4(C)C3CC[C@@]21C (some centres undefined)

>  <normalized growth>
0.984

$$$$

Switching to the query record.
Per the record, Cc1scc2c1N(C(=O)CN1CCN(C)CC1)c1ccccc1NC2=O has normalized growth of 0.945

###

# Test Name: chemical genetic growth profiling, strain panel (AID 1159580)
# Measurement Setup: S. cerevisiae deletion strains, growth OD, locus YDR388W
Out of some 5,500 compounds screened, about 2,000 (36%) were called active. Another 18% or so got no clear call; they are omitted. Rule as the data show it: active = normalized growth mostly below about 0.91 (no sharp cut-off); inconclusive = no clear call, values can overlap the other calls; inactive = mostly above about 0.92. This is one part of the list.
Field 'call' accepts 1 (yes) for active, 0 (no) for inactive

Example results:
>  <Molecule>
CCCc1cc(=O)[nH]c(=S)[nH]1

>  <Label>
0 (no)

$$$$
>  <Molecule>
COc1ccc2cc(CCC(C)=O)ccc2c1

>  <Label>
0 (no)

$$$$
>  <Molecule>
C=C(C)C1(O)OC(=O)C=C1OC (stereo not drawn)

>  <Label>
0 (no)

$$$$
>  <Molecule>
CS(=O)(=O)c1ccc([C@@H](O)[C@@H](CO)NC(=O)C(Cl)Cl)cc1

>  <Label>
0 (no)

$$$$

Query :: Please share the test call associated with CN(C)C(=O)Oc1cccc([N+](C)(C)C)c1 .
Result :: 0 (no)

Query :: What was the test verdict on CC1=CC(=O)c2ccccc2C1=O ?
Result :: 1 (yes)

Query :: Tell me the assay call for CN(C)[C@@H]1C(=O)C(C(N)=O)=C(O)[C@@]2(O)C(=O)C3=C(O)c4c(O)ccc(Cl)c4[C@@](C)(O)[C@H]3C[C@@H]12 please.
Result :: 0 (no)

Query :: Hi, sorry to bother you, what did the test record for CC(C)CCCC(C)C1CC[C@@]2(C)C3=C(CC[C@]12C)[C@@]1(C)CC[C@H](O)C(C)(C)C1CC3 (stereo partly drawn) ?
Result :: 0 (no)

###

Measured normalized growth accompanies every entry in the list below.
# Test Name: chemical genetic growth profiling, strain panel (AID 1159580);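 also: tested at 20 µM; growth read once vehicle control cultures reached saturation at 30 °C; 1 = growth at the plate median or of vehicle wells; lower values mean less growth of the strain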
# Measurement Setup: S. cerevisiae deletion strains, growth OD, locus YGR078C, strain PAC10, hits give low values
The whole screen tested about 5,500 compounds, of which about 2,000 (36%) were called active. Another 18% or so got no clear call; they are omitted. This is one part of the list.

>  <Compound>
CSc1sc(C#N)c2c1C(O)CCC2 (stereo not drawn)

>  <Measurement Type>
normalized growth

>  <Value>
0.983 (inactive)

$$$$

Recorded normalized growth (compound O=C(NCO)c1cccnc1 ): 0.995 (inactive)

Just so you know, measured normalized growth for O=C(O)CCCNCc1cccc2ccccc12 came out at 1.01 (inactive)

###

# Test Name: chemical genetic growth profiling, strain panel (AID 1159580);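 also: tested at 20 µM; growth read once vehicle control cultures reached saturation at 30 °C; 1 = growth at the plate median or of vehicle wells; lower values mean less growth of the strain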
# Measurement Setup: S. cerevisiae deletion strains, growth OD, locus YNL153C, strain GIM3, hits give low values
About 2,000 (36%) of roughly 5,500 compounds were called active. Inconclusive results (about 18%) are left out. Some of the results follow.
Measurement Type: normalized growth
When you answer, write just the number.

Take a look at these entries with their results.
>  <Molecule>
Cn1c(CSc2ccccc2)n[nH]c1=S

>  <Value>
0.981

$$$$
>  <Molecule>
O=C(O)C1C2CCC1C(O)C2 (stereo not drawn)

>  <Value>
0.976

$$$$

Now take the following molecule into account.
The molecule identified as N#CC(c1ccccc1)N1CCCCC1 (stereo not drawn) registered its normalized growth at 1

###

# Test Name: chemical genetic growth profiling, strain panel (AID 1159580);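 also: tested at 20 µM; growth read once vehicle control cultures reached saturation at 30 °C; 1 = growth at the plate median or of vehicle wells; lower values mean less growth of the strain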
# Measurement Setup: S. cerevisiae deletion strains, growth OD, locus YDR392W, strain spt3, hits give low values
About 2,000 (36%) of roughly 5,500 compounds were called active. Another 18% or so got no clear call; they are omitted. This is one part of the list.
Measurement Type: normalized growth
Give the figure by itself; no unit, no explanation.

Would you please look over these solved cases?
>  <Compound>
Oc1c(Cl)cc(Cl)cc1Sc1cc(Cl)cc(Cl)c1O

>  <Value>
0.081

$$$$
>  <Compound>
Cc1cc(=O)[nH]c(=S)[nH]1

>  <Value>
0.929

$$$$
>  <Compound>
CC(C)c1ccc2c(c1)CCC1C(C)(C(N)=O)CCCC21C (stereo not drawn)

>  <Value>
0.627

$$$$
>  <Compound>
CC(=O)Nc1ccc(S(=O)(=O)Nc2onc(C)c2C)cc1

>  <Value>
0.929

$$$$
>  <Compound>
CC(C)CCCC(C)C1CCC2C3=CC[C@H]4C[C@@H](O)CC[C@]4(C)C3CC[C@@]21C (stereo partly drawn)

>  <Value>
0.863

$$$$

normalized growth in this record for Cc1scc2c1N(C(=O)CN1CCN(C)CC1)c1ccccc1NC2=O : 1.01
